Measured On: Lili-Mip2 (Diploptera punctata, UniProt Q6SVB5)
Construct: recombinant, codon-optimised synthetic gene, secreted from S. cerevisiae FGY217 with Ost1 or alpha-factor signal; untagged pYES2 version likely (also made with C-terminal His tag)
Sequence (Q6SVB5 entry or part of it): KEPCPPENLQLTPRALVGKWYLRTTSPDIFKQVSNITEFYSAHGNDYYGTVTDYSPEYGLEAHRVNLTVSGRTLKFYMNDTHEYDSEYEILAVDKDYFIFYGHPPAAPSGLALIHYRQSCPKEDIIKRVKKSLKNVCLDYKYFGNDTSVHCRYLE
Protocol Summary: intrinsic tryptophan fluorescence titration
Assay type: binding
Run Parameters: read-out: Palmitic acid (16:0)
Quantity: pKd
Quick note: pKd means taking -log10 of the concentration in moles per liter.

pKd for Lili-Mip2 (Diploptera punctata, UniProt Q6SVB5) with input CCCCCCCCCCCCCCCC(=O)O [Palmitic acid] equals 5.85

----------
Measured On: Lili-Mip3
Construct: recombinant, codon-optimised synthetic gene, secreted from S. cerevisiae FGY217 with Ost1 or alpha-factor signal; untagged pYES2 version likely (also made with C-terminal His tag)
Protocol Summary: intrinsic tryptophan fluorescence titration
Assay type: binding, Diploptera punctata
Run Parameters: 50 mM sodium acetate pH 4.8, 100 mM NaCl, 25°C; delipidated protein; read-out: Palmitic acid (16:0)
From the text: intrinsic tryptophan fluorescence titration on Lili-Mip3
Quantity: Kd (µM)
Field format: number, assumed µM, no unit text.

Kd recorded for this molecule, CCCCCCCCCCCCCCCC(=O)O , is 0.82

----------
Measured On: Lili-Mip1 (Diploptera punctata, UniProt Q6SVB6)
Construct: recombinant, codon-optimised synthetic gene, secreted from S. cerevisiae FGY217 with Ost1 or alpha-factor signal; untagged pYES2 version likely (also made with C-terminal His tag)
Sequence (Q6SVB6 entry or part of it): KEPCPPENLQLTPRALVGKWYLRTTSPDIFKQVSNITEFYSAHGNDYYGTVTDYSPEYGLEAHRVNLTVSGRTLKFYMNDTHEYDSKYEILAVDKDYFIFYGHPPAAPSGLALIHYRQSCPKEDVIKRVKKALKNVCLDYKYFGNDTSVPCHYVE
Protocol Summary: intrinsic tryptophan fluorescence titration
Assay type: binding
Run Parameters: read-out: Linoleic acid (18:2)
Quantity: pKd
Lab note: report pKd as minus log10 of the concentration in molar units, number only.

Recorded result, CCCCC/C=C\C/C=C\CCCCCCCC(=O)O , pKd: 5.81

----------
Measured On: Lili-Mip1 (Diploptera punctata)
Construct: recombinant, codon-optimised synthetic gene, secreted from S. cerevisiae FGY217 with Ost1 or alpha-factor signal; untagged pYES2 version likely (also made with C-terminal His tag)
Protocol Summary: intrinsic tryptophan fluorescence titration
Assay type: binding
Run Parameters: read-out: Myristic acid (14:0)
Quantity: Kd (µM)
The response must be a number in µM with no trailing unit.

get_value(item= CCCCCCCCCCCCCC(=O)O , readout=Kd) returns 1.96

----------
Measured On: Lili-Mip1 (Diploptera punctata)
Construct: recombinant, codon-optimised synthetic gene, secreted from S. cerevisiae FGY217 with Ost1 or alpha-factor signal; untagged pYES2 version likely (also made with C-terminal His tag)
Protocol Summary: intrinsic tryptophan fluorescence titration
Type: binding
Run Parameters: read-out: Oleic acid (18:1)
Quantity: pKd
Scale explanation: pKd corresponds to minus log10 of a concentration expressed in moles per litre.

Item: CCCCCCCC/C=C\CCCCCCCC(=O)O | pKd: 6.03

----------
Measured On: Lili-Mip2 (Diploptera punctata, UniProt Q6SVB5)
Construct: recombinant, codon-optimised synthetic gene, secreted from S. cerevisiae FGY217 with Ost1 or alpha-factor signal; untagged pYES2 version likely (also made with C-terminal His tag)
Protocol Summary: intrinsic tryptophan fluorescence titration
Format: binding
Run Parameters: read-out: Linoleic acid (18:2)
Quantity: Kd (nM)
Return type: number; implicit unit nM.

Just so you know, measured Kd for CCCCC/C=C\C/C=C\CCCCCCCC(=O)O came out at 2190

----------
Measured On: Lili-Mip3
Construct: recombinant, codon-optimised synthetic gene, secreted from S. cerevisiae FGY217 with Ost1 or alpha-factor signal; untagged pYES2 version likely (also made with C-terminal His tag)
Protocol Summary: intrinsic tryptophan fluorescence titration
Type: binding, Diploptera punctata
Run Parameters: 50 mM sodium acetate pH 4.8, 100 mM NaCl, 25°C; delipidated protein; read-out: Stearic acid (18:0)
Quantity: pKd
Interpret pKd as the negative base-10 log of the concentration measured in mol/L.

pKd reported for this molecule CCCCCCCCCCCCCCCCCC(=O)O [Stearic acid] : 5.75
